- Assay Remarks: Human HepG2 cell viability assay in 384 well format
- Format: toxicity, cell-based
- Design: dose 125 nL, time 70.5 hour; concentration not given beside the values
- Assay Context: HepG2 cells, read-out: Inhibition
Reported Endpoint: cytotoxicity at 70.5 h (%)
All answers are understood in %, so give the number only.

Req: Name the recorded cytotoxicity at 70.5 h for CCn1c(NCc2cccnc2)nc2c(C)nn(C)c2c1=O .
Resp: -4.56

Req: Ok, now CC(C)NC(=O)N1CC[C@@H](N(C)C)[C@@H]1Cc1ccncc1
Resp: -6.16

Req: Ok, now COc1ccc2c(c1)CCCN2C(=O)CN1CCOC(CN(C)C)C1 (stereo unspecified)
Resp: -4.78

Req: Ok, now O=C(NCc1ccc2c(c1)CCCO2)c1ccccc1C1CCNC1 (stereo unspecified)
Resp: -20.6

Req: Ok, now CC(C)c1cccc(N2CCCC3(CCC(=O)N(C4CC4)C3)C2)n1 (stereo unspecified)
Resp: -1.84

Req: Ok, now Cc1ncccc1OC1(C(=O)NCCNc2ccccc2)CCNCC1
Resp: -5.68

Req: Ok, now Cc1occc(=O)c1OCc1noc(C(=O)NC(C)C)n1
Resp: -15.1

Req: Ok, now CCN(CC1CCOC1)C(=O)Nc1ccc(OC)nc1 (stereo unspecified)
Resp: 24.3

Req: Ok, now COCCn1c(=O)n(C)c(=O)c2ccc(C3CCN(C(C)=O)CC3)nc21
Resp: -1.06

Req: Ok, now CN1CCC2(Cc3ccccc3CN(C(=O)c3ccc(Cl)cc3)C2)C1 (stereo unspecified)
Resp: 35.9

Req: Ok, now Cc1nnc(C(C)N(C)Cc2c(C)nn(-c3ccccc3)c2C)o1 (stereo unspecified)
Resp: -1.32
